experiment: ATG_BRE_CIS: Attagene CIS-FACTORIAL HepG2 Assay for human Bone Morphogenetic Protein (BMP) Response Element (BRE) (AID 2282933); settings: HepG2 BMP response element reporter, Attagene transcription factor profiling; actives raise or lower the signal
The source made the active and inactive calls. Rule for the calls: active = hit-call score of the fitted dose curve at least 0.9, where 1 is the maximum; inactive = score below 0.9.
Returns: one label drawn from 1.0 = active, 0.0 = inactive

Worked examples follow.
| molecule | class label |
| --- | --- |
| CCCCCCC1CCC(=O)O1 (stereo unspecified) | 0.0 |
| C1=CCC=C1 | 0.0 |
| CCC(C)=NO | 0.0 |

Recorded test call requested for "O=C(O)/C=C\C(=O)O"
0.0

Same again, this time with "Nc1ccc(S(=O)(=O)Nc2cnc3ccccc3n2)cc1"
0.0

Param item: CCCCCCC(O)CCCCCCCCCCC(=O)OC (stereo unspecified)
0.0

Entry to check: "CCc1cc(C(N)=S)ccn1"
0.0

And "CC(=O)CCc1ccccc1" ?
0.0

Now try "O=S(=O)(O)c1cccc2ccccc12" .
0.0

Another molecule: "CC(O)(P(=O)(O)O)P(=O)(O)O"
0.0

----------
read-out: E-selectin (Homo sapiens); test: BSK_SAg_Eselectin: BioMAP Diversity Plus: SAg Assay for Eselectin Biomarker Activity (AID 2283091); conditions: primary human HUVEC with PBMC; actives raise or lower the signal
Activity calls are given as the source filed them. How the source made its calls: active means hit-call score of the fitted dose curve at least 0.9, where 1 is the maximum; inactive means score below 0.9.
property measured: outcome

| compound | val |
| --- | --- |
| O=C(C(=O)c1ccccc1)c1ccccc1 | inactive |
| CC(C)CC(=O)CC(C)CC(C)C (stereo not drawn) | inactive |
| Oc1cccc2ccccc12 | inactive |

----------
Target: Estrogen receptor (Homo sapiens) (UniProt P03372)
Sequence (P03372 whole entry, looked up, the tested form may be a part): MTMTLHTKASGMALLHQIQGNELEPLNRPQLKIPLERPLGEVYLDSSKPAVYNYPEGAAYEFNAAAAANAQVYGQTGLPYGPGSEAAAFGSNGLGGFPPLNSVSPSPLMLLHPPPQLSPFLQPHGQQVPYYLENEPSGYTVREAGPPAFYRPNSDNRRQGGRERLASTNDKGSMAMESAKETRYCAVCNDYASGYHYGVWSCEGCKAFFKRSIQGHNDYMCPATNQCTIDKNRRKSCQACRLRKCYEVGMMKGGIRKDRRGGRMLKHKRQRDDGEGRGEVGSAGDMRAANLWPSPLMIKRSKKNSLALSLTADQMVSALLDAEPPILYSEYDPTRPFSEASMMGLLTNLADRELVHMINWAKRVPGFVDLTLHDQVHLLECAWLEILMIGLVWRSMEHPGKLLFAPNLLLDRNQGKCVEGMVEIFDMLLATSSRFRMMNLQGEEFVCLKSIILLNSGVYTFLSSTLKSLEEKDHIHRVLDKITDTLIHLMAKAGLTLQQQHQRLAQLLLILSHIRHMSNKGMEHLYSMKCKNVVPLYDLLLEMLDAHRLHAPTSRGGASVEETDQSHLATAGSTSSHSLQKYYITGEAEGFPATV
Assay: OT_ER_ERaERa_0480: Odyssey Thera (OT) 8-hour HEK293T Protein-Complementation Assay for Estrogen Receptor-alpha/-alpha Homodimer (AID 2283351);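 note: rise in fluorescence from reassembled reporter fragments on ERα LBD homodimer in nucleus or whole cell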
Method: OT_ER_ERaERa_0480 is a cell-based assay that uses HEK293T, a human kidney cell line, with measurements taken at 8 hours after chemical dosing in a 384-well plate.OT_ER_ERaERa_0480 is one of one assay component(s) measured or calculated from the OT_ER_ERaERa_0480 assay. […] This assay endpoint, OT_ER_ERaERa_0480, was analyzed in the positive analysis fitting direction relative to DMSO as the negative control and baseline of activity. […]
Inconclusive results are not listed. The source made the active and inactive calls. How the source made its calls: active means hit-call score of the fitted dose curve at least 0.9, where 1 is the maximum; inconclusive means response in the unintended direction; inactive means score below 0.9.

| compound | assayed target | outcome |
| --- | --- | --- |
| CCCCCCC1CCC(=O)O1 (centres undefined) | Estrogen receptor (Homo sapiens) (UniProt P03372) | inactive |
| CCO[Si](CCCN)(OCC)OCC | Estrogen receptor (Homo sapiens) (UniProt P03372) | inactive |
| O=C(O)c1ccccc1C(=O)O | Estrogen receptor (Homo sapiens) (UniProt P03372) | inactive |
| CCOC(=O)c1ccccc1 | Estrogen receptor (Homo sapiens) (UniProt P03372) | inactive |

----------
test: ATG_ISRE_CIS: Attagene CIS-FACTORIAL HepG2 Assay for human Interferon Regulatory Factor 1 (IRF1) binding to an Interferon-Stimulated Response Element (ISRE) (AID 2282948); conditions: HepG2 ISRE cis-reporter (Attagene), mRNA transcription readout; actives raise or lower the signal
The source made the active and inactive calls. The calls were made as follows: active = hit-call score of the fitted dose curve at least 0.9, where 1 is the maximum; inactive = score below 0.9.
property measured: AC50

For orientation, consider the following solved cases.
| molecule | property measured | val |
| --- | --- | --- |
| CCC(C)(CCC(C)C)C(=O)O (stereo not drawn) | AC50 | inactive |
| CCCCOC(=O)COc1ccc(Cl)cc1Cl | AC50 | inactive |
| CN(C)CCC(c1ccc(Cl)cc1)c1ccccn1 (stereo not drawn) | AC50 | 125 µM (active) |
| CC/C=C\CCCCCO | AC50 | inactive |
| Cc1cc2nc3c(=O)[nH]c(=O)nc-3n(C[C@H](O)[C@H](O)[C@H](O)CO)c2cc1C | AC50 | inactive |

Please look up its AC50: "Cc1cccnc1"
164 µM (active)

Also check CC1=CCCC(C)(C)C12CCC(C)O2 (stereo not drawn)
inactive

Then "CC(O)(P(=O)(O)O)P(=O)(O)O" ?
inactive

----------
target: Cellular tumor antigen p53 (Homo sapiens); assay: TOX21_p53_BLA_p2_ratio: Tox21 HCT-116 p53 Agonism Beta-lactamase Assay, Ratio, Phase 2 (AID 2283592)
Inconclusive results are not listed. The source made the active and inactive calls. How the source made its calls: active means hit-call score of the fitted dose curve at least 0.9, where 1 is the maximum; inconclusive means response in the unintended direction; inactive means score below 0.9.
Your reply should match one of these outcome classes. active, inactive

Completed entries (count: 10):
| molecule | class label |
| --- | --- |
| OC[C@H](Cc1cccc(O)c1)[C@H](CO)Cc1cccc(O)c1 | inactive |
| CC(C)(CO)[C@@H](O)C(=O)NCCC(=O)NCCSSCCNC(=O)CCNC(=O)[C@H](O)C(C)(C)CO | inactive |
| COc1cc(C)c(Cc2cnc(N)nc2N)cc1OC | inactive |
| Cc1c(C(=O)O)cccc1[N+](=O)[O-] | inactive |
| c1ccc(-c2ccc(C(c3ccccc3)n3ccnc3)cc2)cc1 (stereo not drawn) | active |
| Cc1cc(C)cc(OCC2CNC(=O)O2)c1 (stereo not drawn) | inactive |
| C=C(C)C(=O)OC(C)C | inactive |
| NO | inactive |
| N=C(N)c1ccc(OCCCOc2ccc(C(=N)N)cc2)cc1 | inactive |
| CCCCCCCCCCCC(=O)N(CCO)CCO | inactive |

What outcome does the record of this test show for "NCc1ccccc1CC(=O)N[C@@H]1C(=O)N2C(C(=O)O)=C(CSc3nnnn3CC(=O)O)CS[C@H]12" ?
inactive

Repeat for the following molecule: "CN(CCCN1c2ccccc2CCc2ccccc21)CC(=O)c1ccc(Cl)cc1"
inactive

Param item: "N=C1N=C(N)c2cc3ccccc3cc21"
active

----------
assay: ATG_VDRE_CIS: Attagene CIS-FACTORIAL HepG2 Assay for human Vitamin D Receptor Element (VDRE) (AID 2282968); conditions: HepG2 VDRE cis-reporter transcription, actives raise or lower the signal
The source made the active and inactive calls. The calls were made as follows: active = hit-call score of the fitted dose curve at least 0.9, where 1 is the maximum; inactive = score below 0.9.
Give one outcome, nothing more. List: yes (1) (active), no (0) (inactive)

Please review the following examples before continuing.
| molecule | class label |
| --- | --- |
| CCCCNC(N)=O | no (0) |
| CN(C)N=Nc1ccccc1 | no (0) |
| O=C(C1CCCCC1)N1CC(=O)N2CCc3ccccc3C2C1 (stereo not drawn) | yes (1) |
| OCCN(CCO)c1cccc(Cl)c1 | no (0) |
| C1=CCC=C1 | no (0) |

Record lookup: outcome of this test for "CCCC(=O)OC/C=C(\C)CCC=C(C)C" ?
no (0)

Param item: "C[Si](C)(C)O[Si](C)(C)O[Si](C)(C)C"
no (0)

Follow-up item: "Brc1ccc(Oc2ccc(Br)cc2)cc1"
no (0)

----------
target: PGR (gene 5241) (UniProt P06401); assay: TOX21_PR_BLA_Followup_Antagonist_ratio: Tox21 HEK293 Progesterone Receptor (PR) Antagonism Beta-lactamase Follow-Up Assay, Ratio (AID 2283934);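 note: PR-UAS-bla HEK293T cells stimulated with 1 nM R5020 agonist for 16 hr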
Sequence (P06401 whole entry, looked up): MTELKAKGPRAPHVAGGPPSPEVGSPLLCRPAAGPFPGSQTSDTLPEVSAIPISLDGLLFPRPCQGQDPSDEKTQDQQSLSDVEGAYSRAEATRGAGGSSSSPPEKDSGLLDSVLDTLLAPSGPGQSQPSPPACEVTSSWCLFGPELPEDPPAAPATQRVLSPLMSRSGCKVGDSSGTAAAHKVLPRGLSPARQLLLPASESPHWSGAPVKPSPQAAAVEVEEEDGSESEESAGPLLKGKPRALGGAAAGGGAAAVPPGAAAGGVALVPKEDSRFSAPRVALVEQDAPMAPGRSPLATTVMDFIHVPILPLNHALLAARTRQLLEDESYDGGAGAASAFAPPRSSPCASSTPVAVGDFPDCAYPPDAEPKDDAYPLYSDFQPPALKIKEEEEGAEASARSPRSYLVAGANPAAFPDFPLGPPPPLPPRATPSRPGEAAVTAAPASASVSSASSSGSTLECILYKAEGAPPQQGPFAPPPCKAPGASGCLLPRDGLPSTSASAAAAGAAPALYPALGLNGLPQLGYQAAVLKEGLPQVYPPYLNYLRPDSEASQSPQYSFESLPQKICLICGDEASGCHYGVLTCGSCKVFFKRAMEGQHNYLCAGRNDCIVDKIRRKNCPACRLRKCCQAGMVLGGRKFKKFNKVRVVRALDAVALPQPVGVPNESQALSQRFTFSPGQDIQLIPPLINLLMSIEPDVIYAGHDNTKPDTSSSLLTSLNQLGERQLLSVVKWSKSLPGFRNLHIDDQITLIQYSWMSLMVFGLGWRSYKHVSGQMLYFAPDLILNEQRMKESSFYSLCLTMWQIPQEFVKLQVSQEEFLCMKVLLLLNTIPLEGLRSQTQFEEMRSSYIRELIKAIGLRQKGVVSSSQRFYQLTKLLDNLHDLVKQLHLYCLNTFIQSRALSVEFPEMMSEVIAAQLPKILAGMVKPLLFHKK
Calls of active or inactive are those of the source. How the source made its calls: active means hit-call score of the fitted dose curve at least 0.9, where 1 is the maximum; inconclusive means response in the unintended direction; inactive means score below 0.9.
property measured: AC50

Solved cases (5 shown):
| compound | AC50 |
| --- | --- |
| N#C/C(=C1/SC[C@@H](c2ccc(Cl)cc2Cl)S1)n1ccnc1 | 33 µM (active) |
| Oc1ccc2c(c1)Cc1ccccc1-2 | 29.4 µM (active) |
| Cc1ccc(/C=N/n2c(-c3ccccc3)csc2=S)cc1 | 23 µM (active) |
| C[C@]12CCC(=O)C=C1CC[C@@H]1[C@@H]2CC[C@@]2(C)[C@H]1CC[C@]2(O)C(=O)CO | inactive |
| CN(C1CCCCC1)S(=O)(=O)c1ccccc1N | 25.7 µM (active) |

What value of AC50 has been reported for the following compound? "C[C@]12C=CC(=O)C=C1[C@@H](F)C[C@@H]1[C@@H]2[C@@H](O)C[C@@]2(C)[C@H]1CC[C@]2(O)C(=O)CO"
inactive

Now the same for "O=[N+]([O-])c1ccc2c(c1)Cc1ccccc1-2"
25 µM (active)

What do we get for COCCOC(=O)C1=C(C)NC(C)=C(C(=O)OC(C)C)C1c1cccc([N+](=O)[O-])c1 (configuration not stated) ?
23 µM (active)

Now give it for CC(=O)OCC(=O)[C@@]1(O)CCC2C3CCC4=CC(=O)CC[C@]4(C)C3C(O)C[C@@]21C (some centres not stated) too.
inactive

Another compound: COC(=O)C(c1ccccc1Cl)N1CCc2sccc2C1 (configuration not stated)
28.9 µM (active)

----------
molecular target: Cellular tumor antigen p53 (Homo sapiens) (UniProt P04637); assay: TOX21_p53_BLA_p3_ratio: Tox21 HCT-116 p53 Agonism Beta-lactamase Assay, Ratio, Phase 3 (AID 2283596)
Sequence (P04637 whole entry, looked up): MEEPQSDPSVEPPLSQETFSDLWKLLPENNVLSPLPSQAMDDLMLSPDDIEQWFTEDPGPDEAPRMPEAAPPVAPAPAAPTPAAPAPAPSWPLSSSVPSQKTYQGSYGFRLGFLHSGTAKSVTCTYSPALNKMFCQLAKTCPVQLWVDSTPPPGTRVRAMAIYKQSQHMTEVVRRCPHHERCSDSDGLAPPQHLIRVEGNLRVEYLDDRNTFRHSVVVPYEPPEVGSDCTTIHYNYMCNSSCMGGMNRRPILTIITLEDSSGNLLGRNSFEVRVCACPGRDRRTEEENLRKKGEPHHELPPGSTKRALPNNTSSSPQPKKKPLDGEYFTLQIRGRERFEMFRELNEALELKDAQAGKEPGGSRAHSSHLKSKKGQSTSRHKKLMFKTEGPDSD
Inconclusive results are not listed. The source made the active and inactive calls. The calls were made as follows: active = hit-call score of the fitted dose curve at least 0.9, where 1 is the maximum; inconclusive = response in the unintended direction; inactive = score below 0.9.
In this exercise, the only acceptable responses are active, inactive

Check out these entries, answers already filled in.
| compound structure | class label |
| --- | --- |
| OCCN1CCN(CCCN2c3ccccc3Sc3ccc(Cl)cc32)CC1 | inactive |
| O=CNNC=O | inactive |
| CC(C)Cc1nccs1 | inactive |

Which outcome was entered for the compound "C[C@@H]1O[C@@H]1P(=O)(O)O" in this test?
inactive

Next compound: "O[C@@H](c1cc(C(F)(F)F)nc2c(C(F)(F)F)cccc12)[C@H]1CCCCN1"
active

Also check "Nc1cnn([C@@H]2O[C@H](CO)[C@@H](O)[C@H]2O)c(=O)n1"
active

Another compound to look at: "CCCCCCNC(=O)n1cc(F)c(=O)[nH]c1=O"
active

Also "COc1cc(C=C2CCCC(=Cc3ccc(O)c(OC)c3)C2=O)ccc1O" , if possible.
inactive

For "O=C(O)/C=C/c1ccc(Cn2ccnc2)cc1" then?
inactive

Param item: "CCCCN1C=CN(C)C1"
inactive

Next compound: "OCc1ccccn1"
inactive

What about this compound? "O=C(CCCN1CCC(O)(c2ccc(Br)cc2)CC1)c1ccc(F)cc1"
inactive

"[O-][n+]1cccc(CO)c1" , same question.
inactive
